target: 5-hydroxytryptamine receptor 2A (Homo sapiens, UniProt P28223); assay: biochemical; type: cell-based, CHO-K1
Sequence (P28223 whole entry): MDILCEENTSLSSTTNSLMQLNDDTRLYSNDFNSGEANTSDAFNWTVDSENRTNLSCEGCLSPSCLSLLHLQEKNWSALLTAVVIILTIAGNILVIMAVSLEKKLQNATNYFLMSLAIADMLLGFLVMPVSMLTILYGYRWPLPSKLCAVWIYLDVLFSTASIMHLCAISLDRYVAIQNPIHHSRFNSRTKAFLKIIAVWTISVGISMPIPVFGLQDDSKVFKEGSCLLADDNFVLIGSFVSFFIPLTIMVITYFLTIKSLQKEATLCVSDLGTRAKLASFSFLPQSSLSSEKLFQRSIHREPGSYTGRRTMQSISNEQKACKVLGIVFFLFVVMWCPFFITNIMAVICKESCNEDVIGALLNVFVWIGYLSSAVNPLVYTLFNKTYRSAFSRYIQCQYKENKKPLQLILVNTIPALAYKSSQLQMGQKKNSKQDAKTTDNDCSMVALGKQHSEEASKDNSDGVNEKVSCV
pKi: −log10 of the molar value.
Items are presented alongside their recorded pKi.
Value Kind: pKi

>>> df
                                 cpd_smiles  obs_value
0  O=S(=O)(NCCCCN1CCC(c2noc3cc(F)ccc23)CC1)c1cccs1       8.02
1  Cc1c(S(=O)(=O)NCCCN2CCN(c3nsc4ccccc34)CC2)sc2ccc(F)cc12       7.85
2  O=S(=O)(NCCCCN1CCN(c2nsc3ccccc23)CC1)c1ccc(F)c(Cl)c1       7.82

* * *

Items are presented alongside their recorded pKi.
target: 5-hydroxytryptamine receptor 6 (Homo sapiens); experiment: biochemical
Sequence (P50406 whole entry): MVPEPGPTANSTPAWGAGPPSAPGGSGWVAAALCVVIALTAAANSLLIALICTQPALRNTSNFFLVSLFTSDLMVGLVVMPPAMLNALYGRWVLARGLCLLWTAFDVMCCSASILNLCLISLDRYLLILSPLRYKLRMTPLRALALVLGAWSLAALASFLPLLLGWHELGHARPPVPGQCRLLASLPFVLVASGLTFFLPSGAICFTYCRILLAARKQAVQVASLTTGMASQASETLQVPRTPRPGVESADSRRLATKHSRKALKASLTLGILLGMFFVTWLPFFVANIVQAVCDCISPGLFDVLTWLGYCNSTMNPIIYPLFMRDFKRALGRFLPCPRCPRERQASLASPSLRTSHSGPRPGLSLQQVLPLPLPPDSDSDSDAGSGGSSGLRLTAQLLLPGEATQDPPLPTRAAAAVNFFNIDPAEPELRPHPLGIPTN
pKi: −log10 of the molar value.
Value Kind: pKi

>>> print(df.to_string())
                                 cpd_smiles                               target_desc  obs_value
0  O=S(=O)(NCCCN1CCN(c2noc3ccccc23)CC1)c1cccs1  5-hydroxytryptamine receptor 6 (Homo sapiens)     < 5.00
1  O=S(=O)(NCCCCN1CCN(c2noc3ccccc23)CC1)c1cccc2scnc12  5-hydroxytryptamine receptor 6 (Homo sapiens)     < 5.00
2  Cc1c(S(=O)(=O)NCCCN2CCN(c3noc4ccccc34)CC2)sc2ccc(F)cc12  5-hydroxytryptamine receptor 6 (Homo sapiens)     < 5.00

* * *

biological target: UniProt:P14416; assay: biochemical
Sequence (P14416 whole entry): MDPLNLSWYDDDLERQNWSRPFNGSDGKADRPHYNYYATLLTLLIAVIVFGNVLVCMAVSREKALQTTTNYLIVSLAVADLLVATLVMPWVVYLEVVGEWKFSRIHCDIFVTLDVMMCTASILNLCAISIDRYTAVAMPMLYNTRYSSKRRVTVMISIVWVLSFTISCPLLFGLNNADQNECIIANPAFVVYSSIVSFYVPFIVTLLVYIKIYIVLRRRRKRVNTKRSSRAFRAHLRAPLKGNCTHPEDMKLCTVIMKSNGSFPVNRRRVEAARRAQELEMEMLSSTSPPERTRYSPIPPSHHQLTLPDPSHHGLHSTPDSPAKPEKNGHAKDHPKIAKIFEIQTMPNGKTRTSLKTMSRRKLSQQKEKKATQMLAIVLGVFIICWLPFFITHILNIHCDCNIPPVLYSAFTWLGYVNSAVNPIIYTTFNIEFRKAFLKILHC
pKi: −log10 of the molar value.
Value Kind: pKi

>>> df
                                 cpd_smiles     target_desc  value_kind  obs_value
0  O=S(=O)(NCCCN1CCN(c2noc3ccccc23)CC1)c1ccc(F)c(Cl)c1  UniProt:P14416         pKi     < 5.00
1  O=S(=O)(NCCCCN1CCC(c2noc3cc(F)ccc23)CC1)c1cccs1  UniProt:P14416         pKi     < 6.00
2  O=S(=O)(NCCCN1CCN(c2noc3ccccc23)CC1)c1ccc(Cl)c(Cl)c1  UniProt:P14416         pKi     < 5.00
3  O=S(=O)(NCCCN1CCN(c2noc3ccccc23)CC1)c1ccc2cc(Cl)ccc2c1  UniProt:P14416         pKi     < 5.00
4  O=S(=O)(NCCCCN1CCC(c2noc3cc(F)ccc23)CC1)c1cnc2ccccn12  UniProt:P14416         pKi     < 6.00
5  O=S(=O)(NCCCN1CCN(c2noc3ccccc23)CC1)c1cccc2scnc12  UniProt:P14416         pKi     < 5.00
